study system: 5-lipoxygenase (Rattus norvegicus, UniProt P12527)
Construct: 20,000×g supernatant from 1.5 million homogenized RBL-1 cells; endogenous in cells
Sequence (P12527 1-673): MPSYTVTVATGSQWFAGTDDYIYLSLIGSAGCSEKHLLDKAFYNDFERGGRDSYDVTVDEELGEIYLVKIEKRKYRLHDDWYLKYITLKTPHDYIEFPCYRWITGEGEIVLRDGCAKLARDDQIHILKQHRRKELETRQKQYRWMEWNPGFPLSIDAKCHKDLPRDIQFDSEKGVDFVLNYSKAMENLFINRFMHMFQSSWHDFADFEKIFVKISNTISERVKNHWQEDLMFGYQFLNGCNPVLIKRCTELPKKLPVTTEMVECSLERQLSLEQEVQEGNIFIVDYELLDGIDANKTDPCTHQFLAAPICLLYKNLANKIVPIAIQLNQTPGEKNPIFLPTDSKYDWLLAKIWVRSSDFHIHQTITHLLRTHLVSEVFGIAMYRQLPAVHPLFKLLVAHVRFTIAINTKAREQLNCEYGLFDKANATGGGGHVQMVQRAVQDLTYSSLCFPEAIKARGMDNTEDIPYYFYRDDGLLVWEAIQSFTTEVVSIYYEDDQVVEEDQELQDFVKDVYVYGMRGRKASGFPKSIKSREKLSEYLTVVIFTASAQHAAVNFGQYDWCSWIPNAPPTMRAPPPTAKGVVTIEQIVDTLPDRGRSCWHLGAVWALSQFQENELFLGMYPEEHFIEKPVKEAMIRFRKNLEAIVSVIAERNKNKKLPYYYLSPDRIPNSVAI
protocol description: In vitro inhibition of 5-lipoxygenase (20,000×g supernatant from homogenized RBL-1 cells, radiolabeled arachidonic acid)
condition parameters: 20,000×g supernatant of RBL-1 cells; triplicate; read-out: IC50 (in vitro inhibitory potency against 5-lipoxygenase)
# IC50 values compiled below
Just the number please, in µM, no unit attached.

Identify measured IC50 associated with CNC(=O)N(O)C[C@@H]1C[C@H]1c1cccc(Oc2ccccc2)c1 (relative stereo) [Example 11] 0.1

Identify measured IC50 associated with CC(=O)N(O)C(C)[C@@H]1C[C@H]1c1ccc2ccccc2c1 (stereo partly shown) [Example 57] 0.3

Identify measured IC50 associated with NC(=O)N(O)C[C@@H]1C[C@H]1c1cccc(Oc2ccccc2)c1 (relative stereo) [Example 10] 0.1

Identify measured IC50 associated with CC([C@@H]1C[C@H]1c1ccc(Oc2ccccc2)cc1)N(O)C(N)=O (stereo partly shown) [Example 2] 0.1
